# Species: Mus musculus
# procedure.summary: Half-maximal response in vitro using peritoneal exudate cells from Propionibacterium acnes-primed mice
# Format: functional
# particulars: read-out: ED50 (the source's name)
Quick reference: log10(EC50) of the listed items.
measurement.name: log10(EC50) (log10 of the value in ng/mL)

compound: CCCCCCCCCCCCCC(=O)O[C@H](CCCCCCCCCCC)CC(=O)N[C@H](CO)CO[C@@H]1OC(CO)[C@H](OP(=O)(O)O)C(OC(=O)C[C@@H](CCCCCCCCCCC)OC(=O)CCCCCCCCCCCCC)[C@@H]1NC(=O)C[C@@H](CCCCCCCCCCC)OC(=O)CCCCCCCCCCCCC (stereo partly drawn)
log10(EC50): 0.95

compound: CCCCCCCCCCC[C@H](CC(=O)N[C@H](CO[C@@H]1OC(CO)[C@H](OP(=O)(O)O)C(OC(=O)C[C@@H](CCCCCCCCCCC)OC(=O)CCCCCCCCC)[C@@H]1NC(=O)C[C@@H](CCCCCCCCCCC)OC(=O)CCCCCCCCC)C(=O)O)OC(=O)CCCCCCCCC (stereo partly drawn)
log10(EC50): -0.52

compound: CCCCCCCCCCCCCC(=O)O[C@H](CCCCCCCCCCC)CC(=O)NC(CO[C@@H]1OC(CO)[C@H](OP(=O)(O)O)C(OC(=O)C[C@@H](CCCCCCCCCCC)OC(=O)CCCCCCCCCCCCC)[C@@H]1NC(=O)C[C@@H](CCCCCCCCCCC)OC(=O)CCCCCCCCCCCCC)C(N)=O (stereo partly drawn)
log10(EC50): 1.30

compound: CCCCCCCCCCC[C@H](CC(=O)N[C@@H](CO[C@@H]1OC(CO)[C@H](OP(=O)(O)O)C(OC(=O)C[C@@H](CCCCCCCCCCC)OC(=O)CCCCCCCCC)[C@@H]1NC(=O)C[C@@H](CCCCCCCCCCC)OC(=O)CCCCCCCCC)C(=O)O)OC(=O)CCCCCCCCC (stereo partly drawn)
log10(EC50): -1.22

compound: CCCCCCCCCCC[C@H](CC(=O)NC(CO[C@@H]1OC(CO)[C@H](OP(=O)(O)O)C(OC(=O)C[C@@H](CCCCCCCCCCC)OC(=O)CCCCCCC)[C@@H]1NC(=O)C[C@@H](CCCCCCCCCCC)OC(=O)CCCCCCC)C(=O)O)OC(=O)CCCCCCC (stereo partly drawn)
log10(EC50): 1.52

compound: CCCCCCCCCCCCCC(=O)O[C@H](CCCCCCCCCCC)CC(=O)NC(CO[C@@H]1OC(CO)[C@H](OP(=O)(O)O)C(OC(=O)C[C@@H](CCCCCCCCCCC)OC(=O)CCCCCCCCCCCCC)[C@@H]1NC(=O)C[C@@H](CCCCCCCCCCC)OC(=O)CCCCCCCCCCCCC)C(=O)O (stereo partly drawn)
log10(EC50): 0.48

compound: CCCCCCCCCCCCCC(=O)O[C@H](CCCCCCCCCCC)CC(=O)N[C@@H](CO)CO[C@@H]1OC(CO)[C@H](OP(=O)(O)O)C(OC(=O)C[C@@H](CCCCCCCCCCC)OC(=O)CCCCCCCCCCCCC)[C@@H]1NC(=O)C[C@@H](CCCCCCCCCCC)OC(=O)CCCCCCCCCCCCC (stereo partly drawn)
log10(EC50): 2.18

* * *

# Organism: Homo sapiens
# procedure.summary: Relative ex vivo induction of IL1-beta in human whole blood stimulated with 10 ug/mL
# Assay type: functional

compound: CCCCCCCCCCCCCC(=O)O[C@H](CCCCCCCCCCC)CC(=O)NC(CO[C@@H]1OC(CO)[C@H](OP(=O)(O)O)C(OC(=O)C[C@@H](CCCCCCCCCCC)OC(=O)CCCCCCCCCCCCC)[C@@H]1NC(=O)C[C@@H](CCCCCCCCCCC)OC(=O)CCCCCCCCCCCCC)C(N)=O (some centres undefined)
Cytokine induction: 0.9

compound: CCCCCCCCCCC[C@H](CC(=O)N[C@H](CO[C@@H]1OC(CO)[C@H](OP(=O)(O)O)C(OC(=O)C[C@@H](CCCCCCCCCCC)OC(=O)CCCCCCCCC)[C@@H]1NC(=O)C[C@@H](CCCCCCCCCCC)OC(=O)CCCCCCCCC)C(=O)O)OC(=O)CCCCCCCCC (some centres undefined)
Cytokine induction: 0.6

compound: CCCCCCCCCCCC(=O)O[C@H](CCCCCCCCCCC)CC(=O)NC(CO[C@@H]1OC(CO)[C@H](OP(=O)(O)O)C(OC(=O)C[C@@H](CCCCCCCCCCC)OC(=O)CCCCCCCCCCC)[C@@H]1NC(=O)C[C@@H](CCCCCCCCCCC)OC(=O)CCCCCCCCCCC)C(=O)O (some centres undefined)
Cytokine induction: 2

compound: CCCCCCCCCCCCCC(=O)O[C@H](CCCCCCCCCCC)CC(=O)NC(CO[C@@H]1OC(CO)[C@H](OP(=O)(O)O)C(OC(=O)C[C@@H](CCCCCCCCCCC)OC(=O)CCCCCCCCCCCCC)[C@@H]1NC(=O)C[C@@H](CCCCCCCCCCC)OC(=O)CCCCCCCCCCCCC)C(=O)OC (some centres undefined)
Cytokine induction: 1.1
